# System: 242566-281-R-J2-PDC complex spheroid viability;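 note: spheroids exposed to compound for 7 days before readout; 100% = DMSO vehicle control wells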
# Method description: Anticancer human tumor 242566-281-R-J2-PDC patient-derived pancreatic carcinoma cell line growth inhibition [RAS]
# Experimental setup: second compound 0.1 µM; first compound 1 µM; active compounds read low
Outcome measure: viability, T/C (%)

CC(Nc1ccc2c(c1)OCCn1cc(N3C(=O)OCC3C(F)F)nc1-2)C(N)=O (centres undefined) + C#Cc1c(F)ccc2cc(O)cc(-c3ncc4c(N5CC6CCC(C5)N6)nc(OCC56CCCN5CC(F)C6)nc4c3F)c12 = 22.4
Cc1nc(N2CCC3(CC2)COC(C)C3N)c(CO)nc1Sc1ccnc(N)c1Cl (centres undefined) + C=CC(=O)N1CCN(c2nc(OCC3CCCN3C)nc3c(F)c(-c4nc(N)cc(C)c4C(F)(F)F)c(Cl)cc23)C(C)C1 = 84.6
Cc1nc(N2CCC3(CC2)COC(C)C3N)c(CO)nc1Sc1ccnc(N)c1Cl (centres undefined) + C#Cc1c(F)ccc2cc(O)cc(-c3ncc4c(N5CC6CCC(C5)N6)nc(OCC56CCCN5CC(F)C6)nc4c3F)c12 = 43
CC(=O)OC12COC1CC(O)C1(C)C(=O)C(O)C3=C(C)C(OC(=O)C(O)C(NC(=O)OC(C)(C)C)c4ccccc4)CC(O)(C(OC(=O)c4ccccc4)C21)C3(C)C (centres undefined) + C=CC(=O)N1CCN(c2nc(OCC3CCCN3C)nc3c(F)c(-c4nc(N)cc(C)c4C(F)(F)F)c(Cl)cc23)C(C)C1 = 37.9
CC1(O)CCCC1n1c(=O)c(C(F)F)cc2cnc(NC3CCN(S(C)(=O)=O)CC3)nc21 (centres undefined) + C#Cc1c(F)ccc2cc(O)cc(-c3ncc4c(N5CC6CCC(C5)N6)nc(OCC56CCCN5CC(F)C6)nc4c3F)c12 = 88
C=CC(=O)N1CCN(c2nc(OCC3CCCN3C)nc3c(F)c(-c4nc(N)cc(C)c4C(F)(F)F)c(Cl)cc23)C(C)C1 (centres undefined) + C#Cc1c(F)ccc2cc(O)cc(-c3ncc4c(N5CC6CCC(C5)N6)nc(OCC56CCCN5CC(F)C6)nc4c3F)c12 = 76.5
C[C@@H](NC(=O)c1ncnc(N)c1Cl)c1ncc(C(=O)Nc2cc(C(F)(F)F)c(Cl)cn2)s1 + C#Cc1c(F)ccc2cc(O)cc(-c3ncc4c(N5CC6CCC(C5)N6)nc(OCC56CCCN5CC(F)C6)nc4c3F)c12 = 88.4
CCN1CCN(Cc2ccc(Nc3ncc(F)c(-c4cc(F)c5nc(C)n(C(C)C)c5c4)n3)nc2)CC1 + C=CC(=O)N1CCN(c2nc(OCC3CCCN3C)nc3c(F)c(-c4nc(N)cc(C)c4C(F)(F)F)c(Cl)cc23)C(C)C1 = 167
CC(C)NCC(C(=O)N1CCN(c2ncnc3c2C(C)CC3O)CC1)c1ccc(Cl)cc1 (centres undefined) + C#Cc1c(F)ccc2cc(O)cc(-c3ncc4c(N5CC6CCC(C5)N6)nc(OCC56CCCN5CC(F)C6)nc4c3F)c12 = 54.8
